Listed below: pKd values for each entry.
- SYSTEM: Cbl-b (residues 36-427) (Homo sapiens, UniProt Q13191)
- Sequence (Q13191 36-427): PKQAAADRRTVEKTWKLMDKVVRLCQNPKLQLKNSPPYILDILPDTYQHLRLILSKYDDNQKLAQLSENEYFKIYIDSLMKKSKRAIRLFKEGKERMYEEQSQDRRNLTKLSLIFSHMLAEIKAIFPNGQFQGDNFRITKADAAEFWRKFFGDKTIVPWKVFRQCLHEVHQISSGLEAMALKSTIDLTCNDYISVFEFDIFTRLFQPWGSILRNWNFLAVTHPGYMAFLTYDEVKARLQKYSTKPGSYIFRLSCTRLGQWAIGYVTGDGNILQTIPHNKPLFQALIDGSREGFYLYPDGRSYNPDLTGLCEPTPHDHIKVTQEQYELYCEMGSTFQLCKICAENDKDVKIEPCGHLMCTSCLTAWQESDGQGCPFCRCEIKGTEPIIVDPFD
pKd: −log10 of the molar value.

COMPOUND	pKd
Cn1cnnc1CC1(c2cccc(NC(=O)c3cc(Cn4ccnn4)nc(C4CC4)n3)c2)COC1	> 7.00
C[C@H](Cc1nccn1C)c1cccc(NC(=O)c2cc(C(=O)N3C[C@@H](O)C[C@H]3C)ccn2)c1	5.00 to 5.52
Cn1cnnc1CC1(c2cccc(N3Cc4c(cccc4C(F)(F)F)C3=O)c2)CC1	5.52 to 6.00
C[C@H](Sc1nncn1C)c1ccc(F)c(NC(=O)c2cccc(C(F)(F)F)n2)c1 [Compound 95a]	5.52 to 6.00
Cn1cnnc1SC(CCO)c1cccc(NC(=O)c2cccc(C(F)(F)F)n2)c1 (stereo not shown)	5.00 to 5.52
C[C@H](Sc1nncn1C)c1ccnc(NC(=O)c2cc(Cl)cc(C(F)(F)F)n2)c1	5.52 to 6.00
Cn1cnnc1CC(C)(C)c1cccc(N2Cc3c(cc(C4CC4)cc3C(F)(F)F)C2=O)c1	> 7.00
Cn1cnnc1C(F)(F)[C@](C)(F)c1cccc(N2Cc3c(cc(CN4CC[C@H](F)C4)cc3C(F)(F)F)C2=O)c1	> 7.00
C[C@@H](Cc1nncn1C)c1ccnc(N2Cc3c(cccc3C(F)(F)F)C2=O)c1 [Compound 304a]	< 5.00
Cn1cnnc1CC1(c2cccc(N3Cc4c(cc(CN5CCC(C)(F)CC5)cc4C(F)(F)F)C3=O)c2)COC1	> 7.00

###

Listed below: fold induction at 4 µM values for each entry.
- System: T-cell
- ASSAY_METHOD_TEXT: CD25 cell surface staining on T-cells co-stimulated with anti-CD3 and anti-CD28 antibody (Biological Example 2)
- Format: cell-based, human
- STATED_CONDITIONS: Homo sapiens, T-cell, fold change over baseline; 4 μM Cbl-b inhibitor; primary human total T-cells; read-out: CD25 staining Anti-CD3/Anti-CD28 stimulation
ENDPOINT_LABEL: fold induction at 4 µM

COMPOUND	ENDPOINT_LABEL	EXPERIMENTAL_VALUE
Cc1ccc(C(=O)Nc2cccc([C@H](C)Cc3nnc[nH]3)c2)nc1C1CC1	fold induction at 4 µM	> 1.76
C[C@H](Cc1nncn1C)c1cc(OC2COC2)nc(N2Cc3c(cccc3C(F)(F)F)C2=O)c1	fold induction at 4 µM	1.31 to 1.5
C[C@H](Sc1nncn1C)c1ccc(F)c(NC(=O)c2cccc(C(F)(F)F)n2)c1 [Compound 95a]	fold induction at 4 µM	1.01 to 1.3
Cn1cnnc1CC(C)(F)c1cccc(N2Cc3c(cccc3C(F)(F)F)C2=O)c1 (racemic)	fold induction at 4 µM	1.01 to 1.3
C[C@H](Sc1nncn1C)c1cccc(NC(=O)c2cc(C(=O)N3C[C@H](O)C[C@@H]3C)ccn2)c1	fold induction at 4 µM	1.01 to 1.3
C[C@H](Cc1nncn1C)c1cccc(NC(=O)c2cc(S(C)(=O)=O)cc(C3CC3)n2)c1	fold induction at 4 µM	< 1
Cc1c[nH]nc1C[C@H](C)c1cccc(N2Cc3c(cccc3C(F)(F)F)C2=O)c1 (single isomer, unassigned) [Compound 270a]	fold induction at 4 µM	1.01 to 1.3
Cc1ccc(C(=O)Nc2cccc([C@H](C)Sc3nncn3C)c2)nc1C1CC1	fold induction at 4 µM	1.01 to 1.3
COc1nc(C(=O)Nc2cccc([C@H](C)Sc3nncn3C)c2)cc2ccccc12	fold induction at 4 µM	1.01 to 1.3
C[C@H](Sc1nncn1C)c1ccnc(NC(=O)c2cc3c(C(F)(F)F)cccc3[nH]2)c1	fold induction at 4 µM	< 1
Cn1cnnc1C(F)(F)[C@](C)(F)c1cccc(NC(=O)c2nc3c(C(F)(F)F)cccc3[nH]2)c1	fold induction at 4 µM	1.01 to 1.3
C[C@H](Sc1nncn1C)c1cccc(N2Cc3c(ccnc3Cl)C2=O)c1	fold induction at 4 µM	> 1.76
Cn1cnnc1CC(C)(C)c1cccc(N2Cc3c(cccc3C(F)(F)F)C2=O)c1	fold induction at 4 µM	1.51 to 1.75
Cc1ccc(C(=O)Nc2cccc(C(C)C(F)(F)c3nncn3C)c2)nc1C1CC1 (stereo not drawn)	fold induction at 4 µM	1.01 to 1.3
Cn1cnnc1[C@@H]1C[C@@H]1c1cccc(NC(=O)c2nc3c(C(F)(F)F)cccc3[nH]2)c1	fold induction at 4 µM	1.01 to 1.3
Cc1ccc(C(=O)Nc2cccc(C(C)Cc3nccn3C)c2)nc1C1CC1 (stereo not drawn)	fold induction at 4 µM	1.01 to 1.3
C[C@H](Cc1nncn1C)c1cccc(N2Cc3c(cc(C(=O)N4CC[C@H](O)C4)cc3C(F)(F)F)C2=O)c1	fold induction at 4 µM	1.31 to 1.5
Cc1cc(C(=O)Nc2cccc([C@H](C)Cc3nncn3C)c2)nc2ccnn12	fold induction at 4 µM	1.31 to 1.5
